Data origin: patent US20050182242A1

- Test system: PI(4,5)P2 liposomes
- experimental protocol: Yeast proteome chip probed with PI(4,5)P2 liposomes
- settings: liposome binding signal on yeast proteome chip, Cy3-streptavidin detection
quantity: PI(4, 5)P2
Respond with the number and no other words.

*Q* Given the molecule MPD2: yeast GST-HisX6 fusion protein on proteome chip (protein, UniProt Q99316 23-277, looked up, GST-His6 tag, yeast GST-HisX6 fusion protein on proteome chip) Protein disulfide isomerase …: YSEAVTMVKSIEQYFDICNRNDSYTMIKYYTSWCQHCKTLAPVYEELGELYAKKANKDDTPINFLEVNCEFFGPTLCTDLPGFPIIELVKPRTKPLVLPKLDWSSMKFHERLWQRIKTWFNNPKYQLDTSRVVRFEGSRNLKSLSNFIDTVRSKDTEERFIEHIFDDSRNCNEELRSQQLLCKAGKEYYSDTLSKLYGDVNGLEKERRRLEALIKQNGDDLSKEVKEKLKIIRLQLSLLSHIEDQLEDTSSHDEL , what is its reported PI(4, 5)P2?
*A* 8.71
